Let's look at some compounds and their measured IC50.
study-system: Proto-oncogene tyrosine-protein kinase Src (Homo sapiens)
Sequence (P12931 2-536 limits assumed): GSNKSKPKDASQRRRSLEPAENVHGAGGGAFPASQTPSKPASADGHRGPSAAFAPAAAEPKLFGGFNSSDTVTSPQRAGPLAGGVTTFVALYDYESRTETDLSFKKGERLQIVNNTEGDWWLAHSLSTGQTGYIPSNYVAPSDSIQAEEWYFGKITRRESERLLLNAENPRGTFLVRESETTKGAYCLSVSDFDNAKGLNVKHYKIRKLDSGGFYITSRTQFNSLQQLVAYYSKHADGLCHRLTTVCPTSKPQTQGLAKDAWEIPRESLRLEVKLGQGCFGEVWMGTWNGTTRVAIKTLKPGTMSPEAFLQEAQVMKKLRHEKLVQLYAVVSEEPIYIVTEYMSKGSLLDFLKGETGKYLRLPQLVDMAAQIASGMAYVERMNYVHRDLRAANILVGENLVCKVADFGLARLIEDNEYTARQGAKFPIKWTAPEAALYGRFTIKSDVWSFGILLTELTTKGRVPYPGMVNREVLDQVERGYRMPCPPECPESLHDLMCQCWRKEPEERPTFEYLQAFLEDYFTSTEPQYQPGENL

{"structure-as-smiles": "CCCS(=O)(=O)Nc1ccc(Cl)c(C(=O)Nc2ccc(NC(C)=O)nc2)c1F", "IC50": "≤ 10 µM"}

# evaluate next
-- ask Please give the measured IC50 for this compound: `CCCS(=O)(=O)Nc1ccc(Cl)c(C(=O)Nc2ccc(Nc3ncc(C)s3)nc2)c1F`
-- reply ≤ 10 µM

* * *

study-system: Macrophage colony-stimulating factor 1 receptor (Homo sapiens)
readout-label: IC50

-- ask Form: Entry = `CCCS(=O)(=O)Nc1ccc(Cl)c(C(=O)Nc2cc(-c3ccc(Cl)cc3)n[nH]2)c1F` | System = Macrophage colony-stimulating factor 1 receptor (Homo sapiens) | IC50 = ____
-- reply ≤ 10 µM

* * *

study-system: High affinity nerve growth factor receptor (Homo sapiens, UniProt P04629)
Sequence (P04629 whole entry): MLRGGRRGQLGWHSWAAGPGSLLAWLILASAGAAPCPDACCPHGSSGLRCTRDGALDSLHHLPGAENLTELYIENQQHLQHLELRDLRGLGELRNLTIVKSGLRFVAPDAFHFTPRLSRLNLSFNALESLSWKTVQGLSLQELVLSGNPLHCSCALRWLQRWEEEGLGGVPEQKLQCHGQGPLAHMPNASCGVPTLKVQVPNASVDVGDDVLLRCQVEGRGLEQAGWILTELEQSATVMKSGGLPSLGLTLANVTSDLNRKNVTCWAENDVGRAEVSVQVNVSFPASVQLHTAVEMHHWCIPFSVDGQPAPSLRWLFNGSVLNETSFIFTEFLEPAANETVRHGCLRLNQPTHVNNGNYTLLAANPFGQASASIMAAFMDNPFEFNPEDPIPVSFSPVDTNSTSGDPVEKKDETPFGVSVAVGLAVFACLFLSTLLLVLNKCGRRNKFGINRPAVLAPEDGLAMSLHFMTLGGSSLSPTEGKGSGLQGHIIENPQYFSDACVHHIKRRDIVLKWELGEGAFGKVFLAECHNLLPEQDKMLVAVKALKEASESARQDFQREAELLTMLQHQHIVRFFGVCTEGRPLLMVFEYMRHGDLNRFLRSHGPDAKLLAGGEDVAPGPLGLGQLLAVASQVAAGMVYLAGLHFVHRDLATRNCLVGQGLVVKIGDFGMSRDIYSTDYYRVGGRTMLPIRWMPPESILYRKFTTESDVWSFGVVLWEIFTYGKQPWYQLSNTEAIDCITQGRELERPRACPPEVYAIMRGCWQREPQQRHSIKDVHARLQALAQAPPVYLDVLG
pIC50: −log10 of the molar value.
readout-label: pIC50

-- ask Form: Entry = `CCCS(=O)(=O)Nc1ccc(Cl)c(C(=O)Nc2ccc(NC(C)=O)nc2)c1F` | System = High affinity nerve growth factor receptor (Homo sapiens, UniProt P04629) | pIC50 = ____
-- reply ≥ 5.00

* * *

study-system: Vascular endothelial growth factor receptor 2 (Homo sapiens)
Sequence (P35968 whole entry): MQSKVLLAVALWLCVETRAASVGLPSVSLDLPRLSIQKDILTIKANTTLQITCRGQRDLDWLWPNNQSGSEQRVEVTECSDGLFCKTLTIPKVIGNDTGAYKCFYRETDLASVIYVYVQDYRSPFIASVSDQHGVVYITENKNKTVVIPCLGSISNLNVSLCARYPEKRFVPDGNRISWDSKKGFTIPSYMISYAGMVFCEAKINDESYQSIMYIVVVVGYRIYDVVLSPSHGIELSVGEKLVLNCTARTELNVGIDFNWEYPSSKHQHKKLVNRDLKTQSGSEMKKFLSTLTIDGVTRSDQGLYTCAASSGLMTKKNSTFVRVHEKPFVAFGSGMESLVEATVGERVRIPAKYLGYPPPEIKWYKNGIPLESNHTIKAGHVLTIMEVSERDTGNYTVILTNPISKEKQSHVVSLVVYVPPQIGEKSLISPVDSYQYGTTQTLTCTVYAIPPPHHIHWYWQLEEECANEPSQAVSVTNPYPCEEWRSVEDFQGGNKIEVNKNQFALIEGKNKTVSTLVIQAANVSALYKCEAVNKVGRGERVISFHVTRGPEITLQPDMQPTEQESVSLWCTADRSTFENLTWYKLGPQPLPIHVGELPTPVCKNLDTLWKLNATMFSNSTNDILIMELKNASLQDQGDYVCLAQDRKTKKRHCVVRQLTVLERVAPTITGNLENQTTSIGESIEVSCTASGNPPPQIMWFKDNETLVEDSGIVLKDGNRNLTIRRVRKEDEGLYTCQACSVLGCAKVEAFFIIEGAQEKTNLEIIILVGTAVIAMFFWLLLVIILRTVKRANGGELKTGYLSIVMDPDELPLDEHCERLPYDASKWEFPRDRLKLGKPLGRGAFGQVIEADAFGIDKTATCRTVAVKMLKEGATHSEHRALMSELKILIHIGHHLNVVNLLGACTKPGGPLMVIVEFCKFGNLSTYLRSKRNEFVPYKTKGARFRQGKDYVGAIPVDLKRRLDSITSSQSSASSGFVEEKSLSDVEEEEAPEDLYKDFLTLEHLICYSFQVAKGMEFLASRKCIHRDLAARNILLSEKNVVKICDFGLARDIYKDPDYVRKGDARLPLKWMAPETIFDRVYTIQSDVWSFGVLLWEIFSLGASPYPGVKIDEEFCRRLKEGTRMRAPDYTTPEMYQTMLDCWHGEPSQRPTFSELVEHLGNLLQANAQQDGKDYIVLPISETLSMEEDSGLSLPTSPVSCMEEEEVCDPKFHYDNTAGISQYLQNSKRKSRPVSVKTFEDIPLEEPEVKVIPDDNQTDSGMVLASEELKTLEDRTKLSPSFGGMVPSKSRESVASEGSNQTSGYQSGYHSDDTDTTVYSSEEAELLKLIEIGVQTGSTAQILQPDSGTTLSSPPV
readout-label: IC50

-- ask Please give the measured IC50 for this compound: `CCCS(=O)(=O)Nc1ccc(Cl)c(C(=O)Nc2ccc(Nc3ncc(C)s3)nc2)c1F`
-- reply ≤ 10 µM

* * *

study-system: Tyrosine-protein kinase BTK (Homo sapiens)
Sequence (Q06187 whole entry): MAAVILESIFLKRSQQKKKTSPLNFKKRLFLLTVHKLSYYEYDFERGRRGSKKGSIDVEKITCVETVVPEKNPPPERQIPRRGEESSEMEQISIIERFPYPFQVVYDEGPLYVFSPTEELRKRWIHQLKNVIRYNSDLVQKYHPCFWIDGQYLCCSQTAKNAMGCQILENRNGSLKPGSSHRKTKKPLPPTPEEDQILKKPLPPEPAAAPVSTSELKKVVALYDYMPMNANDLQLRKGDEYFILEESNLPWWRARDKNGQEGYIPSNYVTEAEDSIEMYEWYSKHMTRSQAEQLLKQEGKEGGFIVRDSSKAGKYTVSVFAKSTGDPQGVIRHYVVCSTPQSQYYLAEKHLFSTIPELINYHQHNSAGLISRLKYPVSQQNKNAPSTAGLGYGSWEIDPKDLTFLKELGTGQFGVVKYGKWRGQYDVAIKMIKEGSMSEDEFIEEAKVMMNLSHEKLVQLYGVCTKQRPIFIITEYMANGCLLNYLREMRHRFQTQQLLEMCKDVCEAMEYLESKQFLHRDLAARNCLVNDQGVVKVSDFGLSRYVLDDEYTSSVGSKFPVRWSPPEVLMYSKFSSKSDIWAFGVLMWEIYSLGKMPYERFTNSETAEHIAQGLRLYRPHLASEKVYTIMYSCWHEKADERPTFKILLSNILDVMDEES
readout-label: IC50

-- ask Please give the measured IC50 for this compound: `CCCS(=O)(=O)Nc1ccc(Cl)c(C(=O)Nc2ccc(Nc3ncc(C)s3)nc2)c1F`
-- reply ≤ 10 µM

* * *

study-system: Tyrosine-protein kinase Lck (Homo sapiens, UniProt P06239)
Sequence (P06239 whole entry): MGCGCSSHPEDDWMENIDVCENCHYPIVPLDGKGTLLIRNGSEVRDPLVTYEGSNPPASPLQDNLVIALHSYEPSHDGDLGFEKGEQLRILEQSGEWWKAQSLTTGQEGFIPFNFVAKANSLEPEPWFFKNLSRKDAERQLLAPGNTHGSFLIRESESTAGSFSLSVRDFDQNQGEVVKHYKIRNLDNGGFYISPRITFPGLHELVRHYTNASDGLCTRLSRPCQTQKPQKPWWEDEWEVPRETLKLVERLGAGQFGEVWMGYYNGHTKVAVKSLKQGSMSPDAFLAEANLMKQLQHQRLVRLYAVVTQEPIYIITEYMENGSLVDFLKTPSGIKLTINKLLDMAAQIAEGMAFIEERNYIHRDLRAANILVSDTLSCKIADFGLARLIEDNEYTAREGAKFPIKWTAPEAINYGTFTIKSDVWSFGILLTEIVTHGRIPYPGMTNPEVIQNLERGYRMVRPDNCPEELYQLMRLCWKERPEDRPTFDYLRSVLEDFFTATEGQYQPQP
pIC50: −log10 of the molar value.
readout-label: pIC50

-- ask Please give the measured pIC50 for this compound: `CCCS(=O)(=O)Nc1ccc(Cl)c(C(=O)Nc2ccc(NC(C)=O)nc2)c1F`
-- reply ≥ 5.00

* * *

Here we list compounds with their recorded IC50 when tested on RAF proto-oncogene serine/threonine-protein kinase (Homo sapiens).
Sequence (P04049 whole entry): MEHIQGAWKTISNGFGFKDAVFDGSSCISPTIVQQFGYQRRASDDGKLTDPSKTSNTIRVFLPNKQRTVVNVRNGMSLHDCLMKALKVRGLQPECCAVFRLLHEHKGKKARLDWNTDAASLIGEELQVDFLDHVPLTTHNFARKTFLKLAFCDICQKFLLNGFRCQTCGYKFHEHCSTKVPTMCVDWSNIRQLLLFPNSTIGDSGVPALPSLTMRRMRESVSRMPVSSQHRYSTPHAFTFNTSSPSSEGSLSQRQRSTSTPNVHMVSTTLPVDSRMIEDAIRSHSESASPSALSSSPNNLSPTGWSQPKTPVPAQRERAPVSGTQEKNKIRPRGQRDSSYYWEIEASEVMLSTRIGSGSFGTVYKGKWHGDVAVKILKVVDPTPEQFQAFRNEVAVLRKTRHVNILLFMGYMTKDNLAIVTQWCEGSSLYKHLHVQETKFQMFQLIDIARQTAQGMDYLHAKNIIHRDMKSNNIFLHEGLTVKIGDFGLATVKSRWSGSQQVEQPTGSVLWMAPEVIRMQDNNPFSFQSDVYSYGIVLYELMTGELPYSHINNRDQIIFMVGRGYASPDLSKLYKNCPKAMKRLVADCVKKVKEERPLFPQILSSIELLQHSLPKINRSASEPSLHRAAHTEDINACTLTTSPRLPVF

{"structure-as-smiles": "CCCS(=O)(=O)Nc1ccc(F)c(CNc2cnc3ccccc3c2)c1F", "study-system": "RAF proto-oncogene serine/threonine-protein kinase (Homo sapiens)", "IC50": "≤ 10 µM"}
{"structure-as-smiles": "CCCS(=O)(=O)Nc1ccc(Cl)c(C(=O)Nc2ccc(NC(C)=O)nc2)c1F", "study-system": "RAF proto-oncogene serine/threonine-protein kinase (Homo sapiens)", "IC50": "≤ 10 µM"}

-- ask Please give the measured IC50 for this compound: `CCCS(=O)(=O)Nc1ccc(Cl)c(C(=O)Nc2cnc3ccccc3c2)c1F`
-- reply ≤ 10 µM

* * *

study-system: Tyrosine-protein kinase CSK (Homo sapiens)
Sequence (P41240 whole entry): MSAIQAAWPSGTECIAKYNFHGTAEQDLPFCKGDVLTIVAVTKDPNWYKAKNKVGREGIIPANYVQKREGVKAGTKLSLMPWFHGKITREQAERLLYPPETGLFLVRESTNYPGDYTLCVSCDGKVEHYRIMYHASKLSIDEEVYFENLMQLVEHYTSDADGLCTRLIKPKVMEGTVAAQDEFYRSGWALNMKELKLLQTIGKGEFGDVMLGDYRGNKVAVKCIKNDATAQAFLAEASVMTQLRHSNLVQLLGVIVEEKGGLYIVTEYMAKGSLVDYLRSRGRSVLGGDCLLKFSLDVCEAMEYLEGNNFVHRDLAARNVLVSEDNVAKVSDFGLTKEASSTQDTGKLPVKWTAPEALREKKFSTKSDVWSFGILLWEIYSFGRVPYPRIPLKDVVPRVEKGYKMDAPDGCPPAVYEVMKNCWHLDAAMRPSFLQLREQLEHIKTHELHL
pIC50: −log10 of the molar value.
readout-label: pIC50

-- ask Please give the measured pIC50 for this compound: `CCCS(=O)(=O)Nc1ccc(Cl)c(C(=O)Nc2ccc(NC(C)=O)nc2)c1F`
-- reply ≥ 5.00
